src = ChEMBL document CHEMBL3621194

experiment: Inhibition of Pseudomonas aeruginosa RocR assessed as residual enzyme activity using 30 uM c-di-GMP substrate
pIC50: −log10 of the molar value.

Smiles entry	pIC50
Nc1nc2c(ncn2CCCn2cc(Cn3cnc4c(=O)[nH]c(N)nc43)nn2)c(=O)[nH]1	4.18

----------
tested on: Pseudomonas aeruginosa; experiment: Inhibition of Pseudomonas aeruginosa RocR assessed as residual enzyme activity at 100 uM using 30 uM c-di-GMP substrate
Metric name: Activity (%)

Smiles entry	Measured target	Endpoint result
Nc1nc2c(ncn2[C@@H]2O[C@H](COCc3cn(C[C@H]4O[C@@H](n5cnc6c(=O)[nH]c(N)nc65)[C@H](O)[C@@H]4O)nn3)[C@@H](O)[C@H]2O)c(=O)[nH]1	Pseudomonas aeruginosa	88
Nc1nc2c(ncn2CCn2cc(Cn3cnc4c(=O)[nH]c(N)nc43)nn2)c(=O)[nH]1	Pseudomonas aeruginosa	77
Nc1nc2c(ncn2CCCn2cc(COC[C@H]3O[C@@H](n4cnc5c(=O)[nH]c(N)nc54)[C@H](O)[C@@H]3O)nn2)c(=O)[nH]1	Pseudomonas aeruginosa	163

----------
tested on: Pseudomonas aeruginosa; assay: Inhibition of Pseudomonas aeruginosa RocR assessed as residual enzyme activity at 100 uM using 30 uM c-di-GMP substrate

Smiles entry	Activity, %
Nc1ncnc2c1ncn2[C@@H]1O[C@H](COCc2cn(C[C@H]3O[C@@H](n4cnc5c(N)ncnc54)[C@H](O)[C@@H]3O)nn2)[C@@H](O)[C@H]1O	113
Nc1nc(Cl)c2ncn(CCCn3cc(Cn4cnc5c(Cl)nc(N)nc54)nn3)c2n1	96
Nc1ncnc2c1ncn2CCCn1cc(Cn2cnc3c(N)ncnc32)nn1	64
CNc1nc(N)nc2c1ncn2CCCn1cc(Cn2cnc3c(NC)nc(N)nc32)nn1	70

----------
test system: Caulobacter vibrioides; assay: Inhibition of Caulobacter crescentus PleD assessed as residual enzyme activity at 100 uM using 100 uM GTP substrate

Smiles entry	Activity, %
Nc1nc(Cl)c2ncn(CCn3cc(Cn4cnc5c(Cl)nc(N)nc54)nn3)c2n1	92
Clc1ncnc2c1ncn2CCCn1cc(Cn2cnc3c(Cl)ncnc32)nn1	97
Nc1ncnc2c1ncn2[C@@H]1O[C@H](COCc2cn(C[C@H]3O[C@@H](n4cnc5c(N)ncnc54)[C@H](O)[C@@H]3O)nn2)[C@@H](O)[C@H]1O	105
Nc1ncnc2c1ncn2CCCn1cc(Cn2cnc3c(N)ncnc32)nn1	106

----------
system: Caulobacter vibrioides; test: Inhibition of Caulobacter crescentus PleD assessed as residual enzyme activity at 100 uM using 100 uM GTP substrate
Metric name: Activity (%)

Smiles entry	Endpoint result
Nc1nc2c(ncn2CCCCn2cc(Cn3cnc4c(=O)[nH]c(N)nc43)nn2)c(=O)[nH]1	87
Nc1nc2c(ncn2CCCn2cc(Cn3cnc4c(=O)[nH]c(N)nc43)nn2)c(=O)[nH]1	12.5
CNc1nc(N)nc2c1ncn2CCCn1cc(Cn2cnc3c(NC)nc(N)nc32)nn1	96
